# target.of.assay: T1, CD3 epsilon homodimer protein (UniProt P07766 23-126)
# T1 construct: also called CD3 (CD3 epsilon)
# run.description: SPR, antibody over immobilised CD3e homodimer;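 note: SPR at 25 °C with CD3 epsilon homodimer amine-coupled to a CM4 sensor chip and antibody flowed over as analyte in HBS-EP+ running buffer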
assay.endpoint: KD ratio to GLS3000
# output: bare number, no unit

Look up KD ratio to GLS3000 for this binder: CE115HA000/GLS3000 R24A (antibody, IgG1, name in Kabat numbering, V domains shown, one-arm IgG1) VH: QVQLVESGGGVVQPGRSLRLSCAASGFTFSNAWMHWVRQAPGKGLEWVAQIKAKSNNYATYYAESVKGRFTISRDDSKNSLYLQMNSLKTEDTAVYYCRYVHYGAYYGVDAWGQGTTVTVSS VL: DIVMTQSPLSLPVTPGEPASISCASSQSLVHSNRNTYLHWYQQKPGQAPRLLIYKVSNRFSGVPDRFSGSGSGTDFTLKISRVEAEDVGVYYCGQGTQVPYTFGQGTKLEIK
1

Do the same for CE115HA000/GLS3000 V27cP (antibody, IgG1, name in Kabat numbering, V domains shown, one-arm IgG1) VH: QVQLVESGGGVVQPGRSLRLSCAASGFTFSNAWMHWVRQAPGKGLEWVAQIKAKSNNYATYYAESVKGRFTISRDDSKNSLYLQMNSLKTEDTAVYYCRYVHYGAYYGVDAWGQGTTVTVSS VL: DIVMTQSPLSLPVTPGEPASISCRSSQSLPHSNRNTYLHWYQQKPGQAPRLLIYKVSNRFSGVPDRFSGSGSGTDFTLKISRVEAEDVGVYYCGQGTQVPYTFGQGTKLEIK please
3.71

Do the same for CE115HA000/GLS3000 S27eM (antibody, IgG1, name in Kabat numbering, V domains shown, one-arm IgG1) VH: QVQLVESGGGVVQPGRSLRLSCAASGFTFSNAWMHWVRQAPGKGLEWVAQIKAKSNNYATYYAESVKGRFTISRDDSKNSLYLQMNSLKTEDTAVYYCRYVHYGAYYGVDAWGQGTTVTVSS VL: DIVMTQSPLSLPVTPGEPASISCRSSQSLVHMNRNTYLHWYQQKPGQAPRLLIYKVSNRFSGVPDRFSGSGSGTDFTLKISRVEAEDVGVYYCGQGTQVPYTFGQGTKLEIK please
1.11
